Examples of compounds with documented IC50 follow.
SYSTEM_TESTED: hmGluR1 receptor (Homo sapiens, UniProt Q13255)
Construct: expressed in transfected cells
Sequence (Q13255 19-1194): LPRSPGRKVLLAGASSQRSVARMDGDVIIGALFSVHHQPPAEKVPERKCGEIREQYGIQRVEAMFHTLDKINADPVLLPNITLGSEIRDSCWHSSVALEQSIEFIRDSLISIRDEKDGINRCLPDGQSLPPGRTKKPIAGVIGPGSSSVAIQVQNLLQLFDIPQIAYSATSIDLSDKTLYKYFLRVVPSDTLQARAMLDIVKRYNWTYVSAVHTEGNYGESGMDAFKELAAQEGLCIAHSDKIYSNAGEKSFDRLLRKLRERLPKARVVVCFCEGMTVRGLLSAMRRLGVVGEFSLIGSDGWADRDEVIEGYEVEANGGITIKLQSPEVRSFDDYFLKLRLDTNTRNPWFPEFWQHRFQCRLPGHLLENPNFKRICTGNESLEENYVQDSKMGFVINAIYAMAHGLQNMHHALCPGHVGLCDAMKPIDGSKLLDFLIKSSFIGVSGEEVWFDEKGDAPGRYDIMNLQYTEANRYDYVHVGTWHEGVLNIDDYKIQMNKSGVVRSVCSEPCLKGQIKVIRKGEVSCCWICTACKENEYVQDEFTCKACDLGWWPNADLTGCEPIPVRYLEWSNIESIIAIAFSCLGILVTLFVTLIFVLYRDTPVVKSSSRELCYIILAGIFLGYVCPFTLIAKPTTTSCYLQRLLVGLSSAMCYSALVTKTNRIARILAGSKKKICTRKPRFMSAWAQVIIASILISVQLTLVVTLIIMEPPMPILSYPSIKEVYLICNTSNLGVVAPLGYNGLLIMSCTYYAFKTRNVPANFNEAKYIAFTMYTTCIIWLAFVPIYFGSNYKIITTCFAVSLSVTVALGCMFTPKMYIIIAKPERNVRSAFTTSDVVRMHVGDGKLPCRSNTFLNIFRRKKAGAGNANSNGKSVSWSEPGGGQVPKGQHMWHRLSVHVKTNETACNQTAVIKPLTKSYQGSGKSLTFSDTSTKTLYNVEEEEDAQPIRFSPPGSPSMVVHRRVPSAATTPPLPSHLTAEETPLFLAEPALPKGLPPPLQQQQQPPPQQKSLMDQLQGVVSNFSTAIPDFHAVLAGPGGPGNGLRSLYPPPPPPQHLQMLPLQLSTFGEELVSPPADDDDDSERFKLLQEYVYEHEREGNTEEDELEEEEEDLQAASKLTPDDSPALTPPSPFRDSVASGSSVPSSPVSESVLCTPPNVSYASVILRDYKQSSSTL
PROCEDURE_TEXT: IC50 determination: intracellular calcium mobilization (FLIPR) upon Quisqualate stimulation in CHO cells stably expressing hmGluR1
Format: cell-based
CONDITION_INFO: against Quisqualate 1 μM (EC80), FLIPR calcium mobilization, read-out: IC50 Class

Qu. Entry CN(C)c1ccnc2sc3c(=O)n(-c4cccc(F)c4)cnc3c12 [28CP] has what IC50?
Ans. < 50 nM

Qu. Which IC50 value belongs to C=CCNc1ccnc2sc3c(=O)n(-c4ccc(OC)cc4)cnc3c12 [28DS] ?
Ans. < 50 nM

Qu. Given the entry C#CCN(C)c1ccnc2sc3c(=O)n(-c4ccc(OC)cc4)cnc3c12 [28DU] , report its measured IC50.
Ans. < 50 nM

Qu. Consider the compound shown here: O=c1c2sc3nccc(NCCCO)c3c2ncn1-c1ccc(Br)cc1 [28GQ] What is its recorded IC50?
Ans. < 50 nM

Qu. Bench note: what IC50 did `CCc1ncnc2sc3c(=O)n(-c4ccc(Cl)cc4)cnc3c12` show?
Ans. < 50 nM

Further cases:
Qu. Look up IC50: `O=c1c2sc3nccc(C4CC4)c3c2ncn1-c1ccc(Cl)cc1`
Ans. < 50 nM

Qu. # query: IC50 of entry `Nc1c([N+](=O)[O-])cnc2sc3c(=O)n(C4CCCCC4)cnc3c12`
Ans. 150 to 1000 nM

Qu. Reported IC50 for COc1ccc(Nc2ncnc3sc4c(=O)n(-c5ccc(OC)cc5)cnc4c23)cc1 [190B] : what is it?
Ans. 50 to 150 nM

Qu. Given the compound Cc1ccc(-n2cnc3c(sc4cnnc(NCCCO)c43)c2=O)cc1 [167F] , what is its reported IC50?
Ans. > 1000 nM

Qu. Look up IC50: CCNc1nncc2sc3c(=O)n(-c4ccc(C)cc4)cnc3c12 [167I]
Ans. 150 to 1000 nM

Qu. Quick check: IC50 of COc1ccc(-n2cnc3c(sc4nccc(OC)c43)c2=O)c(C)c1 [28BL] ?
Ans. > 1000 nM

Qu. Record request: IC50 value, item CNc1ccnc2sc3c(=O)n(-c4ccc(F)cc4)cnc3c12 [28IB]
Ans. < 50 nM

Qu. What value of measured IC50 is listed for COc1ccc(-n2cnc3c(sc4nccc(NC5CC5)c43)c2=O)c(F)c1 [131H] ?
Ans. 50 to 150 nM

Qu. Entry under review: COc1ccc(-n2cnc3c(sc4ncnc(Nc5nccs5)c43)c2=O)cc1 [190D] . Reported IC50?
Ans. 150 to 1000 nM

Qu. // returns reported IC50 for input COCCNc1ccnc2sc3c(=O)n(-c4ccc(F)cc4)cnc3c12 [28GL]
Ans. < 50 nM

Qu. For the compound shown here, CCOc1cnnc2sc3c(=O)n(-c4ccc(C)cc4)cnc3c12 [161A] , give the reported IC50.
Ans. > 1000 nM

Qu. Fill blank: measured IC50 of the compound O=c1c2sc3ncnc(NC4CC4)c3c2ncn1-c1ccc(Br)cc1 [95AU] is ____.
Ans. < 50 nM

Qu. Request the reported IC50 associated with C#CCN(C)c1ccnc2sc3c(=O)n(-c4ccc(Cl)cc4)cnc3c12 [28DX]
Ans. < 50 nM

Qu. GET /values?readout=IC50&item= C#CC(C)Nc1ccnc2sc3c(=O)n(-c4ccc(C)cc4)cnc3c12 (centres unmarked) [28EZ]
Ans. 150 to 1000 nM

Qu. Given the entry Cc1ccc(-n2cnc3c(sc4nc(O)cc(N(C)C)c43)c2=O)cc1 [172A] , report its measured IC50.
Ans. < 50 nM
